molecular target: Gal(b1-4)GalNAc(a1-3)[Fuc(a1-2)]Gal(b1-4)GlcNAc; test: glycan array binding signal (z-score within array); higher = stronger binding; conditions: glycan notation: IUPAC condensed, linker removed
The entries come from a sample that favours the strongest signals as a whole.
Observable: glycan array binding signal (z-score)
Response field accepts a number only; no unit should be typed.

Quick one: glycan array binding signal (z-score) of TIM1 (protein) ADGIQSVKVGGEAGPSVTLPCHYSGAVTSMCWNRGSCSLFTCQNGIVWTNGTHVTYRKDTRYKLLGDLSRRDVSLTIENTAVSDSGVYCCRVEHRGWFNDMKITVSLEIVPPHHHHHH ?
-0.212

Value lookup for glycan array binding signal (z-score); key = cFel (Cyprinus carpio), P68512 (protein) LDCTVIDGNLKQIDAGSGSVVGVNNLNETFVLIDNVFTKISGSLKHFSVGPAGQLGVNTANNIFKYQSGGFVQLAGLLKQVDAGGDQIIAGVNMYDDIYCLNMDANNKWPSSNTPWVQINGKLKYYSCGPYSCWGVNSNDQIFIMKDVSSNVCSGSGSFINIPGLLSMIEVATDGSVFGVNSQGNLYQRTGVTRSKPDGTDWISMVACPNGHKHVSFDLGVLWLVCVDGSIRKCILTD
0.995

GET /values?readout=glycan array binding signal (z-score)&item= IRp60B (Homo sapiens), Q9UGN4-3 (protein) MWLPWALLLLWVPAGDHSELSQNPKQAATQSELHYANLELLMWPLQEKPAPPREVEVEYSTVASPREELHYASVVFDSNTNRIAAQRPREEEPDSDYSVIRKT
-0.378

Recorded glycan array binding signal (z-score) of Codakine (Codakia orbicularis), Q3KVL7_9BIVA (protein) MKILVAVFLVLVVVGTAAAGCPDGWTQFLDLCYIYQSAKASWASAQSSCQALGGILAEPDTACENEVLIHMCRENGDAGSFGPWLGGQKVGGAWQWSSSGAAFDYLRWGPNEPNNSGGNEDCLHYNWLSWNDLRCHYQASYLCQRAAE , please.
-0.419

Entry under review: CPA (Cicer arietinum) (protein) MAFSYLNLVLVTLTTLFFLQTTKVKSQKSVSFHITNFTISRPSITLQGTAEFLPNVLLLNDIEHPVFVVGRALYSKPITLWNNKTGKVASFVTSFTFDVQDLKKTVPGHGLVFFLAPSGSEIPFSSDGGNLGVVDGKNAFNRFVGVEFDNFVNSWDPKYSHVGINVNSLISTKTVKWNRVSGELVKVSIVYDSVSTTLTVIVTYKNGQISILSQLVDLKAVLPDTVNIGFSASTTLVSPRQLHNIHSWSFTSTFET . Reported glycan array binding signal (z-score)?
-0.399

What measured glycan array binding signal (z-score) goes with CREG (Mus musculus), O88668 (protein) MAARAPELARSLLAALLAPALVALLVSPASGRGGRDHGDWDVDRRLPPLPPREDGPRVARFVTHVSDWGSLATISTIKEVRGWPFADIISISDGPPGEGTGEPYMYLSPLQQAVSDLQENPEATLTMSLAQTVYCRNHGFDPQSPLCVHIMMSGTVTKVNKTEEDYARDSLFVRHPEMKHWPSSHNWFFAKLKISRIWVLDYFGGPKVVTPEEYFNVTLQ ?
0.494
